Values were extracted from PubChem BioAssay (NCI).

Tested on: SNB-19 CNS
assayExplanation: NCI tumour cell line growth inhibition, 48 h; in the data active = GI50 below about 0.43 µM; inactive = the rest
A correct response names exactly one class from y (active), n (inactive)

{"compound": "Nc1nc(N)c2c(n1)NC(c1ccc(Cl)cc1)C1CCc3ccccc3C1=N2 (centres undefined)", "categoryLabel": "n"}
{"compound": "COc1cc2cc(C(=O)Nc3ccccc3)c(N)nc2cc1OC", "categoryLabel": "n"}
{"compound": "CC(C)Cc1cc(-c2cccn2C)c(C#N)c(=O)[nH]1", "categoryLabel": "n"}
{"compound": "CCCCCCCN(CCCCCCC)C(=N)c1ccc(OC)c2ccccc12", "categoryLabel": "n"}
{"compound": "N/C(=N/O)NOCCC(N)C(=O)O (centres undefined)", "categoryLabel": "n"}
{"compound": "COc1ccc(CNCCN2C(=O)c3ccc4c5c(ccc(c35)C2=O)C(=O)N(CCNCc2ccc(OC)c(OC)c2OC)C4=O)c(OC)c1OC", "categoryLabel": "n"}

Query string: What is the recorded call for this compound in the test? `COc1cc(N2CCN(C(C)C)CC2)ccc1Nc1nc(Nc2ccc(F)cc2C(N)=O)c2cc[nH]c2n1`
Result string: n

Query string: What is the recorded call for this compound in the test? `O=C(/C=C/c1cc2ccccc2[nH]c1=O)c1ccc(O)cc1`
Result string: n

Query string: What is the recorded call for this compound in the test? `Clc1ccc(Nc2nnc(COc3ccccc3)c3ccccc23)cc1`
Result string: n

Query string: What is the recorded call for this compound in the test? `CCN(Cc1c(F)cccc1C(F)(F)F)c1ccc(CO)c(Cl)c1`
Result string: n

Query string: What is the recorded call for this compound in the test? CCN1C(=O)N(CC)C2C1NN=c1s/c(=C\c3ccc(Br)cc3)c(=O)n12 (centres undefined)
Result string: y

Query string: What is the recorded call for this compound in the test? `CC(=O)OCc1cc[c]([Hg][Cl])o1`
Result string: n

Query string: What is the recorded call for this compound in the test? C/C=C1/CN2CCC34c5ccccc5N5C(=O)C(C6CC78c9ccccc9N9C(=O)C=CC(C%10CC7N6C/C%10=C/C)C98)=CC(C1CC23)C54 (centres undefined)
Result string: n

Query string: What is the recorded call for this compound in the test? COC1C[C@H](O[C@@H]2C[C@H](O[C@@H]3C[C@H](O[C@@H]4C(=O)c5c(cc6cc(O[C@H]7C[C@@H](O[C@H]8C[C@@H](O)[C@H](O)C(C)O8)[C@H](O)C(C)O7)c(C)c(O)c6c5O)C[C@H]4C(OC)C(=O)[C@@H](O)[C@@H](C)O)OC(C)[C@H]3O)OC(C)[C@@H]2O)OC(C)[C@@H]1O (some centres undefined)
Result string: y

* * *

Test system: MDA-MB-435
A correct response names exactly one class from active, inactive

Some entries whose results are on file:
{"smilesCode": "Cn1cc(-c2nc(-c3c[nH]c4ccccc34)cs2)c2cccnc21", "categoryLabel": "active"}
{"smilesCode": "[N-]=[N+]=NCCCn1c2c(c3ccccc3c1=O)C(=O)c1cc3c(cc1-2)OCO3", "categoryLabel": "inactive"}
{"smilesCode": "Cc1c(-c2c(F)cc(C(N)=O)c3[nH]c4c(c23)CC[C@H](C(C)(C)O)C4)cccc1-n1c(=O)c2cccc(F)c2n(C)c1=O", "categoryLabel": "inactive"}
{"smilesCode": "O=C(Nc1c(Cl)cccc1Cl)Oc1cccc2cccnc12", "categoryLabel": "inactive"}

Below: the item to evaluate.
Query string: What is the recorded call for this compound in the test? `COc1cc(N2CCN(C(C)C)CC2)ccc1Nc1nc(Nc2ccc(F)cc2C(N)=O)c2cc[nH]c2n1`
Result string: active

* * *

Test system: HOP-62 NSCLC
assayExplanation: NCI tumour cell line growth inhibition, 48 h
valueKind: TGI (µM)
One number for each entry, in µM.

Parameters: items (list). Returns: TGI for each item.
1. COc1cc([C@@H]2c3cc4c(cc3[C@H](OC3OC5COC(C(C)C)OC5C(O)C3O)C3COC(=O)[C@@H]32)OCO4)cc(OC)c1OC (some centres not stated)
2. C=C1C(=O)O[C@H]2[C@H]1CC/C(COC(=O)NCCc1ccc(Br)cc1)=C\CC[C@@]1(C)O[C@@H]21
3. Clc1ccc(Nc2nnc(COc3ccccc3)c3ccccc23)cc1
4. O=C(/C=C/c1cc2ccccc2[nH]c1=O)c1ccc(O)cc1
5. Cc1cccc(N=Nc2ccc(O)c(CN(C)C)c2)c1
6. O=C(Nc1ccc([N+](=O)[O-])cc1Cl)c1cc(Cl)ccc1O
7. COC(=O)C1=C(C(=O)OC)SC2(S1)C(C(=O)OC)=C(C(=O)OC)Sc1c2ssc1=O

Result string:
1: 25.4; 2: 4.4; 3: 7.74; 4: 8.18; 5: 28.9; 6: 0.469; 7: 4.53

* * *

Test system: COLO 205 colon
assayExplanation: NCI tumour cell line growth inhibition, 48 h
I'd appreciate it if you could supply GI50 values for the items below.

Field: example entries. Status: answers known.
{"molecule": "OCC1OC(n2cnc3cc(Cl)c(Cl)cc32)C(O)C1O (configuration not stated)", "resultValue": "23800 nM"}
{"molecule": "COc1ccc(CNCCN2C(=O)c3ccc4c5c(ccc(c35)C2=O)C(=O)N(CCNCc2ccc(OC)c(OC)c2OC)C4=O)c(OC)c1OC", "resultValue": "89.9 nM"}
{"molecule": "N/C(=N/O)NOCCC(N)C(=O)O (configuration not stated)", "resultValue": "> 100000 nM"}

Parameters: items (list). Returns: GI50 for each item.
1. O=C(Nc1n[nH]c2cc(-c3ccc(F)cc3)ccc12)C1CC1
2. CS(=O)(=O)Nc1cc(-c2ccc3ncnc(Nc4ccc(OCc5ccccn5)c(Cl)c4)c3c2)cnc1Cl
3. CC1(/C=C/c2ccc(-c3ccccc3)cc2)CCn2cnc3ncnc(c32)N1O (configuration not stated)
4. O=[N+]([O-])c1ccc(NC(c2ccccc2)c2ccc3cccnc3c2O)cc1 (configuration not stated)

Result string:
1: 8120 nM; 2: 316 nM; 3: 326 nM; 4: 448 nM

Parameters: items (list). Returns: GI50 for each item.
1. Cc1ccc2c(c1)n([O-])c(C(F)(F)F)c(C(=O)c1ccco1)[n+]2=O
2. COc1ccc(C2CC(=O)Nc3c2c(C)nn3-c2nc3ccccc3[nH]2)cc1OC (configuration not stated)
3. O=C(COc1ccc(Cl)cc1Cl)NNc1ccc([N+](=O)[O-])cc1

Result string:
1. 816 nM
2. 9360 nM
3. 95700 nM

Parameters: items (list). Returns: GI50 for each item.
1. COc1ccc(COc2ccc(Cc3cnc(N)nc3N)cc2OC)cc1
2. Nc1nc(N)c2c(n1)NC(c1ccc(Cl)cc1)C1CCc3ccccc3C1=N2 (configuration not stated)

Result string:
["4270 nM", "2780 nM"]

* * *

System: TK-10 renal
assayExplanation: NCI tumour cell line growth inhibition, 48 h
valueKind: TGI

{"molecule": "OCC1OC(N2CCN(C3OC(CO)C(O)C(O)C3O)CC2)C(O)C(O)C1O (stereo unspecified)", "assayedTarget": "TK-10 renal", "valueKind": "TGI", "resultValue": "> 100 µM"}
{"molecule": "Nc1[nH]c(=S)[nH]c(=O)c1N=Nc1c(Br)cc(S(N)(=O)=O)cc1Br", "assayedTarget": "TK-10 renal", "valueKind": "TGI", "resultValue": "> 100 µM"}

Parameters: items (list). Returns: TGI for each item.
1. O=C(/C=C/c1cc2ccccc2[nH]c1=O)c1ccc(O)cc1
2. CN(C)c1ccc(/C=C(\C#N)C(=O)c2ccccc2)cc1Br
3. C#CCN(Cc1ccc2nc(-c3ccccc3)c(Cl)nc2c1)c1ccc(Cl)c(Cl)c1
4. C[C@]12CC[C@@H]3c4cc(C=O)c(OCc5ccccc5)cc4CC[C@H]3[C@@H]1CCC2OCc1ccccc1 (stereo partly specified)
5. CN(CCCNC(=O)c1[nH]nc2c1ccc1ccccc12)CCCNC(=O)c1[nH]nc2c1ccc1ccccc12

Result string:
11.8 µM
> 100 µM
> 100 µM
> 100 µM
31.8 µM

* * *

I'd appreciate it if you could supply TGI values for the items below.
Test system: HCC-2998 colon
assayExplanation: NCI tumour cell line growth inhibition, 48 h

Field: example entries. Status: answers known.
{"molecule": "Clc1ccc(CCNCCNC2(c3cc4ccccc4s3)CCCCC2)cc1Cl", "valueKind": "TGI", "resultValue": "2.82 µM"}
{"molecule": "CSCCC(NOC(=O)Cc1ccccc1)P(=O)(O)c1ccccc1 (stereo unspecified)", "valueKind": "TGI", "resultValue": "> 100 µM"}
{"molecule": "CCN(CC)CCNC(=O)C1COc2ccc(-c3cc(=O)c4ccccc4o3)cc2O1 (stereo unspecified)", "valueKind": "TGI", "resultValue": "35.4 µM"}
{"molecule": "Cc1ccccc1N=C(c1ccccc1)C1C(=O)c2ccccc2C1=O", "valueKind": "TGI", "resultValue": "54.2 µM"}
{"molecule": "COC(=O)c1cc(NC(=O)Cn2c3ccccc3c3ccccc32)cn1C", "valueKind": "TGI", "resultValue": "> 100 µM"}

Parameters: items (list). Returns: TGI for each item.
1. CCOC(=O)C(NS(=O)(=O)c1ccccc1)(C(F)(F)F)P(=O)(OCC(C)C)OCC(C)C (stereo unspecified)
2. Cc1cccc(Nc2ncc(-c3ccccc3)o2)c1

Result string:
1. > 100 µM
2. > 25 µM
